All figures here come from ChEMBL document CHEMBL4052772.

- Target or system: Platelet-derived growth factor receptor alpha (Homo sapiens, UniProt P16234)
- Sequence (P16234 whole entry): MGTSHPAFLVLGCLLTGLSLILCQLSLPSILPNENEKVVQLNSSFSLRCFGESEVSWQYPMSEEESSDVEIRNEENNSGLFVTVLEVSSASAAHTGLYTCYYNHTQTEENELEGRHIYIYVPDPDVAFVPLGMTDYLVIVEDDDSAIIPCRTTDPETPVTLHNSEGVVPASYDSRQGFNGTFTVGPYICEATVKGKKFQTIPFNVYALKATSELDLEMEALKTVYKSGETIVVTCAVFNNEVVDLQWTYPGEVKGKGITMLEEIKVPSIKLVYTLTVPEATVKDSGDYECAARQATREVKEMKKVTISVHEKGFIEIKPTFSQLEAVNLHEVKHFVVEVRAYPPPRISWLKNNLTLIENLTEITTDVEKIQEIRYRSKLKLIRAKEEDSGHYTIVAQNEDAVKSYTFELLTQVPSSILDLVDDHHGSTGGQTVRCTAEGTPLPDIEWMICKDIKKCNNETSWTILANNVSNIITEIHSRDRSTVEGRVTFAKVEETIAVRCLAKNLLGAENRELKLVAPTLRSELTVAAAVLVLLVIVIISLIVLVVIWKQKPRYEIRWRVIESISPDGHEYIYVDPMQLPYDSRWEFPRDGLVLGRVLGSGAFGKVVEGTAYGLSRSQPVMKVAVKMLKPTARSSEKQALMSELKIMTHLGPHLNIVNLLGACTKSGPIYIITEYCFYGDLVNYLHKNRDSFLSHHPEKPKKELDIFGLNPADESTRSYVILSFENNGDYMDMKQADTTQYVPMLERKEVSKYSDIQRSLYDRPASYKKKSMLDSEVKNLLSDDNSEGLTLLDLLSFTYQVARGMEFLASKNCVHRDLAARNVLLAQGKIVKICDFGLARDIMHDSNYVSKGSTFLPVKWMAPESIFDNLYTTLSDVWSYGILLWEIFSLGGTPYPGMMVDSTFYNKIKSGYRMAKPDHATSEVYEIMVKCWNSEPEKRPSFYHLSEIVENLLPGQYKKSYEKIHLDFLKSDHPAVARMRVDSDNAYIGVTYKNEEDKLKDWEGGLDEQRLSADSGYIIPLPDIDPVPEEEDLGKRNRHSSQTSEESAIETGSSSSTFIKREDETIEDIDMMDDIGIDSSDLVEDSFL
Parameter: pIC50
Expect pIC50 as a plain number equal to -log10 of the molar concentration.

Challenge: Which pIC50 is listed for "COc1cc2c(Oc3ccc(NC(=O)c4nc5ccccc5n(-c5ccc(F)cc5)c4=O)cc3F)ccnc2cc1OCCCN1CCN(C)CC1" ?
Response given: 7.72

----------
- Target or system: Mast/stem cell growth factor receptor Kit (Homo sapiens)
- Sequence (P10721 whole entry): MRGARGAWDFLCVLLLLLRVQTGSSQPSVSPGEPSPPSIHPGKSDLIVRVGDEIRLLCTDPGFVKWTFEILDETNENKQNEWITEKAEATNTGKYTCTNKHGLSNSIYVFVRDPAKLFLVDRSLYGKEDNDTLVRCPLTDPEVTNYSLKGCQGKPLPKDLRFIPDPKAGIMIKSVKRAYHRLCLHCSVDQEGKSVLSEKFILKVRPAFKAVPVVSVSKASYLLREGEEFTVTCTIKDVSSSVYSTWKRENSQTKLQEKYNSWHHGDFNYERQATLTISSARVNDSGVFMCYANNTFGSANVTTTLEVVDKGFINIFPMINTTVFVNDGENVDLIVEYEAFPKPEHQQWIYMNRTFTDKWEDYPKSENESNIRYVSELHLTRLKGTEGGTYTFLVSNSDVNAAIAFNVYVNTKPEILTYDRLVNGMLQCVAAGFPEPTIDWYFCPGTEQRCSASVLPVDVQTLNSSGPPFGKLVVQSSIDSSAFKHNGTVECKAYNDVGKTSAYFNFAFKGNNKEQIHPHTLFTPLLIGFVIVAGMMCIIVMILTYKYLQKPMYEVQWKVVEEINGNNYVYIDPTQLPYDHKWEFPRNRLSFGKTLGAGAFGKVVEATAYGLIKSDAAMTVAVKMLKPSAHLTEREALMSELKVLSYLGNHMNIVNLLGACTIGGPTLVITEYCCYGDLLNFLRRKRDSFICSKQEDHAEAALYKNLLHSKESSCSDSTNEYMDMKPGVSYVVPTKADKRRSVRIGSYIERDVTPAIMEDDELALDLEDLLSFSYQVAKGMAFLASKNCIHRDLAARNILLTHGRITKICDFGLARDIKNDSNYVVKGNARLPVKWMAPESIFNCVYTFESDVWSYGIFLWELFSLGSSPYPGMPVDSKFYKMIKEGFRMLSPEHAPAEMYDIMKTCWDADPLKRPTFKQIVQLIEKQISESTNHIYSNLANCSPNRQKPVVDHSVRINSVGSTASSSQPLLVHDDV
Parameter: pIC50
Expect pIC50 as a plain number equal to -log10 of the molar concentration.

Challenge: Which pIC50 is listed for "COc1cc2c(Oc3ccc(NC(=O)c4nc5ccccc5n(-c5ccc(F)cc5)c4=O)cc3F)ccnc2cc1OCCCN1CCN(C)CC1" ?
Response given: 8.61

----------
Hi there, I'd appreciate the recorded IC50 for every entry that follows.
Field: numeric (nM). Do not append units.

Challenge: Notebook entry, Hepatocyte growth factor receptor (Homo sapiens, UniProt P08581) assay: IC50 of "COc1cc2c(Oc3ccc(NC(=O)c4nc5ccccc5n(-c5ccc(F)cc5)c4=O)cc3F)ccnc2cc1OCCCN1CCCCC1" = ?
Response given: 8.03

Challenge: Notebook entry, Hepatocyte growth factor receptor (Homo sapiens, UniProt P08581) assay: IC50 of "COc1cc2c(Oc3ccc(NC(=O)c4nc5ccccc5n(-c5ccccc5F)c4=O)cc3F)ccnc2cc1OCCCN1CCOCC1" = ?
Response given: 4.52

Challenge: Notebook entry, Hepatocyte growth factor receptor (Homo sapiens, UniProt P08581) assay: IC50 of "COc1cc2c(Oc3ccc(NC(=O)c4nc5ccccc5n(-c5ccccc5Cl)c4=O)cc3F)ccnc2cc1OCCCN1CCOCC1" = ?
Response given: 3.23

Challenge: Notebook entry, Hepatocyte growth factor receptor (Homo sapiens, UniProt P08581) assay: IC50 of "COc1cc2c(Oc3ccc(NC(=O)c4nc5ccccc5n(-c5ccc(Cl)cc5)c4=O)cc3F)ccnc2cc1OCCCN1CCOCC1" = ?
Response given: 6.76

----------
Hi there, I'd appreciate the recorded IC50 for every entry that follows.
- System: NCI-H460
- Protocol: Antiproliferative activity against human H460 cells after 72 hrs by MTT assay
- Condition set: NCI-H460, 72 h
Field: numeric (nM). Do not append units.

Challenge: Which IC50 is listed for "COc1ccc(-n2c(=O)c(C(=O)Nc3ccc(Oc4ccnc5cc(OCCCN6CCOCC6)c(OC)cc45)c(F)c3)nc3ccccc32)cc1" ?
Response given: 1850

Challenge: Which IC50 is listed for "COc1cc2c(Oc3ccc(NC(=O)c4nc5ccccc5n(-c5ccccc5F)c4=O)cc3F)ccnc2cc1OCCCN1CCOCC1" ?
Response given: 230

Challenge: Which IC50 is listed for "COc1cc2c(Oc3ccc(NC(=O)c4nc5ccccc5n(-c5ccc(Cl)cc5)c4=O)cc3F)ccnc2cc1OCCCN1CCOCC1" ?
Response given: 280

Challenge: Which IC50 is listed for "COc1ccc(-n2c(=O)c(C(=O)Nc3ccc(Oc4ccnc5cc(OCCCN6CCOCC6)c(OC)cc45)c(F)c3)nc3ccccc32)c(OC)c1" ?
Response given: 2050

Challenge: Which IC50 is listed for "COc1cc2c(Oc3ccc(NC(=O)c4nc5ccccc5n(-c5ccccc5)c4=O)cc3F)ccnc2cc1OCCCN1CCOCC1" ?
Response given: 1040

Challenge: Which IC50 is listed for "COc1cc2c(Oc3ccc(NC(=O)c4nc5ccccc5n(-c5ccc(OC(F)(F)F)cc5)c4=O)cc3F)ccnc2cc1OCCCN1CCOCC1" ?
Response given: 290

Challenge: Which IC50 is listed for "COc1cc2c(Oc3ccc(NC(=O)c4nc5ccccc5n(-c5ccc(F)cc5)c4=O)cc3F)ccnc2cc1OCCCN1CCOCC1" ?
Response given: 140

Challenge: Which IC50 is listed for "COc1cc2c(Oc3ccc(NC(=O)c4nc5ccccc5n(-c5ccc(Br)cc5)c4=O)cc3F)ccnc2cc1OCCCN1CCOCC1" ?
Response given: 210

Challenge: Which IC50 is listed for "COc1cc2c(Oc3ccc(NC(=O)c4nc5ccccc5n(-c5cccc(F)c5)c4=O)cc3F)ccnc2cc1OCCCN1CCOCC1" ?
Response given: 400

Challenge: Which IC50 is listed for "COc1cc2c(Oc3ccc(NC(=O)c4nc5ccccc5n(-c5ccccc5Cl)c4=O)cc3F)ccnc2cc1OCCCN1CCOCC1" ?
Response given: 140

Challenge: Which IC50 is listed for "COc1cc2c(Oc3ccc(NC(=O)c4nc5ccccc5n(-c5ccc(Cl)cc5Cl)c4=O)cc3F)ccnc2cc1OCCCN1CCOCC1" ?
Response given: 640

Challenge: Which IC50 is listed for "COc1cc2c(Oc3ccc(NC(=O)c4nc5ccccc5n(-c5cccc(Cl)c5)c4=O)cc3F)ccnc2cc1OCCCN1CCOCC1" ?
Response given: 530

Challenge: Which IC50 is listed for "COc1cc2c(Oc3ccc(NC(=O)c4nc5ccccc5n(-c5ccccc5C(F)(F)F)c4=O)cc3F)ccnc2cc1OCCCN1CCOCC1" ?
Response given: 280

Challenge: Which IC50 is listed for "COc1cc2c(Oc3ccc(NC(=O)c4nc5ccccc5n(-c5ccc(C)cc5)c4=O)cc3F)ccnc2cc1OCCCN1CCOCC1" ?
Response given: 1120
